- protocol_conditions: human, serum
observable: Hepatotoxicity (moderate)
Reply briefly: the number, and no unit.

Consider the following illustrative entries.
What value of Hepatotoxicity (moderate) has been reported for the following compound? `CCc1oc2ccccc2c1C(=O)c1ccc(O)cc1`
0

Same question for COCC(=O)Nc1c(I)c(C(=O)NCC(O)CO)c(I)c(C(=O)N(C)CC(O)CO)c1I (centres undefined) [IOPROMIDE] please.
0

Cool, now `N[C@H](Cc1cc(I)c(Oc2cc(I)c(O)c(I)c2)c(I)c1)C(=O)O`
1

Quick one: COc1cccc2c1C(=O)c1c(O)c3c(c(O)c1C2=O)C[C@@](O)(C(=O)CO)C[C@@H]3O[C@H]1C[C@H](N)[C@@H](O)[C@H](C)O1 [EPIRUBICIN]
3

How about this compound: `C[C@]12COC(=O)C[C@@H]1CC[C@@H]1[C@@H]2CC[C@@]2(C)[C@H]1CC[C@]2(C)O`
0

What do you have for `CCc1oc2ccccc2c1C(=O)c1cc(Br)c(O)c(Br)c1` ?
1

Continue with `CCOC(N)=O`
0

Consider next the compound `ClC=C(Cl)Cl` in the same way.
1

Others:
Query: Hepatotoxicity (moderate); subject: `N[C@@H](Cc1ccc(O)c(O)c1)C(=O)O`
1

Try this compound next: CCOC(=O)OC(C)OC(=O)[C@@H]1N2C(=O)[C@@H](/N=C/N3CCCCCC3)[C@H]2SC1(C)C (some centres undefined)
3

Record: `[Li]`
4

Follow-up entry: CC(C)=CCN1CC[C@]2(C)c3cc(O)ccc3C[C@H]1[C@H]2C [(+)-PENTAZOCINE]
0

Try this compound next: `Cc1c(C)c2ccc(OCCCN3CCN(Cc4ccc(Cl)cc4)CC3)cc2oc1=O`
1

* * *

Some compounds, each annotated with its measured Hepatotoxicity (time to onset).
- experiment: Times to onset, minimal and maximal, observed in the indexed observations. [column 'DELAI' in source]
- protocol_conditions: human

Value lookup for Hepatotoxicity (time to onset); key = Clc1ccc(COC(Cn2ccnc2)c2ccc(Cl)cc2Cl)cc1 (configuration not stated) [ECONAZOLE]
4 months

Continue with CN(C)CCCN1c2ccccc2Sc2ccc(Cl)cc21 [CHLORPROMAZINE]
1 day - 28 years

Follow-up entry: NNCCc1ccccc1 [PHENELZINE]
3 weeks - 5 months

Continuing:
What value of measured Hepatotoxicity (time to onset) is listed for O=c1cc(Cc2ccccc2)[nH]c(=S)[nH]1 [BENZYLTHIOURACIL] ?
1 month - 2 months

For Cc1ccc(NC(=O)c2ccc(CN3CCN(C)CC3)cc2)cc1Nc1nccc(-c2cccnc2)n1 [IMATINIB] then?
11 days - 12 days

* * *

- experiment: Times to onset, minimal and maximal, observed in the indexed observations. [column 'DELAI' in source]
- protocol_conditions: human
observable: Hepatotoxicity (time to onset)

// below: answered compounds
# lookup: Hepatotoxicity (time to onset) of CN1C(=O)CN=C(c2ccccc2)c2cc(Cl)ccc21 [DIAZEPAM]
2 days - 9 years

Again, but for CO[C@H]1/C=C/O[C@@]2(C)Oc3c(C)c(O)c4c(c3C2=O)C2=NC3(CCN(CC(C)C)CC3)NC2=C(NC(=O)/C(C)=C\C=C\[C@H](C)[C@H](O)[C@@H](C)[C@@H](O)[C@@H](C)[C@H](OC(C)=O)[C@@H]1C)C4=O [RIFABUTIN]
2 weeks - 11 weeks

Please give the result for COc1ccc2c(c1)N(C[C@H](C)CN(C)C)c1ccccc1S2 [LEVOMEPROMAZINE] too.
1.2 months - 2 months

Next: COC1=CC(=O)C[C@@H](C)[C@]12Oc1c(Cl)c(OC)cc(OC)c1C2=O [GRISEOFULVIN]
3 days - 4.5 months

Quick one: CC(COc1ccccc1)NN (stereo not drawn) [PHENOXYPROPAZINE]
1.5 months - 4 months

Others:
Bench note: what Hepatotoxicity (time to onset) did O=C(NCN1CCOCC1)c1cnccn1 [MORINAMIDE] show?
4 months

Then this compound: Nc1ccc(C(=O)[O-])cc1.[K+] [AMINOBENZOATE POTASSIUM]
2 months

Entry C[C@]1(O)CC[C@H]2[C@@H]3CCC4=CC(=O)CC[C@]4(C)[C@@]3(F)[C@@H](O)C[C@@]21C [FLUOXYMESTERONE] please
6 months - 13 years
